Hey, just so you know, these numbers are from the METLIN SMRT retention time set (Domingo-Almenara et al. 2019).

- test-name: gradient 5% acetonitrile 3 min, to 50% in 2 min, to 85% in 15 min, held 3 min, 100 µL/min
- condition-context: column: Zorbax Extend-C18 2.1 x 50 mm; eluents: water / acetonitrile, 0.1% formic acid
outcome-measure: RP-LC retention time (s)

# annotated cases, reported RP-LC retention time shown
compound: CCc1cc(=O)n(CC(=O)Nc2ccccc2Cl)c(N2CCOCC2)n1
outcome-measure: RP-LC retention time
numeric-readout: 830
//
compound: COc1ccc(-c2nc(NC3CCCCC3)c3ccccc3n2)cc1
outcome-measure: RP-LC retention time
numeric-readout: 856
//
compound: CCCn1cc(S(=O)(=O)NCc2ccccc2C(F)(F)F)c2cccnc21
outcome-measure: RP-LC retention time
numeric-readout: 988
//
compound: Cc1cnc(-c2ccccc2)n1CCNS(=O)(=O)c1ccc(C#N)cc1
outcome-measure: RP-LC retention time
numeric-readout: 634

[1] O=C(NC1CC1)c1ccc(OCC2CCN(C(=O)C3(c4ccccc4)CC3)CC2)cc1
[2] CC1CCCCN1CCNC(=O)c1csc(-c2ccc(N3CCCC3)nc2)n1 (stereo not given)
Exam item: Hey, which is lower on measured RP-LC retention time, 1 or 2 ? Pick one; state its label.
Marked response: 2

[1] N#Cc1nc(-c2ccc(COc3ccc(Cl)cc3)o2)oc1NCCCn1ccnc1
[2] CC(C)c1ccc(NC(=O)CN2C(=O)C(C(=O)N3CCCC3)Sc3ccccc32)cc1 (stereo not given)
Exam item: From the recorded data, which exceeds the other in RP-LC retention time: 1 or 2 ? Pick one; state its label.
Marked response: 2
(2: 1140 s, 1: 627 s)

[1] CN1C(=O)c2cccn2CC1C(=O)N1CCN(c2ncccn2)CC1 (stereo not given)
[2] Cc1ccsc1C(=O)Nc1cccn2nc(C(C)C)nc12
Exam item: Hey, which is lower on measured RP-LC retention time, 1 or 2 ? Pick one; state its label.
Marked response: 1
(1: 609 s, 2: 986 s)

---

- test-name: gradient 5% acetonitrile 3 min, to 50% in 2 min, to 85% in 15 min, held 3 min, 100 µL/min
- condition-context: column: Zorbax Extend-C18 2.1 x 50 mm; eluents: water / acetonitrile, 0.1% formic acid
outcome-measure: RP-LC retention time (s)

molecule: O=C(Nc1cnn(-c2ncc(N3CCCCC3)cn2)c1)Nc1ccccc1C(F)(F)F
RP-LC retention time, s: 891
//
molecule: CCOC(=O)c1c(C)oc2nc(C)nc(NCCc3ccc(Cl)cc3)c12
RP-LC retention time, s: 1380
//
molecule: COc1ccc(NC(=O)Cn2nc3c4sc(N(C)C)nc4ncn3c2=O)cc1
RP-LC retention time, s: 1410
//
molecule: O=C1Nc2ccccc2OC1C(=O)N1CCC(Cc2ccccc2)CC1 (stereo not given)
RP-LC retention time, s: 920
//
molecule: O=C1/C(=C\c2ccc(O)c(O)c2)Oc2cc(O)ccc21
RP-LC retention time, s: 710
//
molecule: CCOC(=O)C(C(=O)Nc1ccccn1)C1CCCCC1 (stereo not given)
RP-LC retention time, s: 908
//
molecule: Cc1ccc(CCNC(=O)CN2C(=O)CSc3cccn3-c3ccccc32)cc1
RP-LC retention time, s: 965
//
molecule: CC(CCc1ccccc1)NC(=O)C1CCCN(c2nccnc2Oc2ccccc2)C1 (stereo not given)
RP-LC retention time, s: 1100
//
molecule: C#CCN[C@@H]1CCc2ccccc21
RP-LC retention time, s: 613
//
molecule: CCN1C(=O)C2(CCN(C(=O)C3CC3)CC2)c2ccccc21
RP-LC retention time, s: 779

[A] CC(NC(=O)C(C)(C)C)C(=O)N1CCN(c2ccccn2)CC1 (stereo not given)
[B] COc1ccc(S(=O)(=O)N2CCC(c3noc(-c4cccc(C)c4)n3)CC2)cc1
Exam item: Hey, which is lower on measured RP-LC retention time, A or B ? Pick one; state its label.
Marked response: A
(A: 574 s, B: 1170 s)

[P] O=C(Cn1nc2c(N3CCOCC3)nccn2c1=O)Nc1ccc(Br)cc1F
[Q] COc1ccc(CCC(=O)Nc2nc(-c3ccc(Cl)cc3)cs2)cc1
Exam item: From the recorded data, which exceeds the other in RP-LC retention time: P or Q ? Pick one; state its label.
Marked response: Q

---

- test-name: gradient 5% acetonitrile 3 min, to 50% in 2 min, to 85% in 15 min, held 3 min, 100 µL/min
- condition-context: column: Zorbax Extend-C18 2.1 x 50 mm; eluents: water / acetonitrile, 0.1% formic acid
outcome-measure: RP-LC retention time (s)

molecule: Cc1cccc(N2CCN(C(=O)c3ccc(Cn4cncn4)cc3)CC2C)c1 (centres undefined)
RP-LC retention time (s): 676
--
molecule: CNC(=O)c1cc(Cc2ccc3nc(Nc4cccc(C(F)(F)F)c4)[nH]c3c2)ccn1
RP-LC retention time (s): 680
--
molecule: Cn1nc(N2CCC(NC(=O)c3ccsc3)C2)ccc1=O (centres undefined)
RP-LC retention time (s): 640

[a] CCn1ncc(NC(=O)COc2ccc(F)cc2)c(N2CCOCC2)c1=O
[b] CN(C)CCNC(=O)C1CCCN(c2ncnc3c2nc2n3CCCCC2)C1 (centres undefined)
[c] COc1cccc(C2Cn3nnc(-c4nc(-c5ccc(C(C)(C)C)cc5)no4)c3CO2)c1 (centres undefined)
Exam item: Please put the entries in order of rising RP-LC retention time. Respond with an ordered listing of the labels, as requested.
Marked response: b, a, c
(b: 573 s, a: 821 s, c: 1450 s)

---

- test-name: gradient 5% acetonitrile 3 min, to 50% in 2 min, to 85% in 15 min, held 3 min, 100 µL/min
- condition-context: column: Zorbax Extend-C18 2.1 x 50 mm; eluents: water / acetonitrile, 0.1% formic acid
outcome-measure: RP-LC retention time (s)

# annotated cases, reported RP-LC retention time shown
molecule: O=C1NCCCn2cc(S(=O)(=O)N3CCN(c4ccccc4)CC3)cc21
RP-LC retention time, s: 724
--
molecule: CCCc1noc(-c2ccnc(-n3ncc(C(=O)N4CCN(CC)CC4)c3C)c2)n1
RP-LC retention time, s: 643
--
molecule: COc1cc(CNC(=O)c2nc(CCS(=O)(=O)c3ccc(C)cc3)no2)cc(OC)c1OC
RP-LC retention time, s: 825
--
molecule: CSc1ccc(CNC(=O)Cc2cn(C)c3ncccc23)cc1
RP-LC retention time, s: 686

[P] CCCCOc1c(C(=O)c2c(F)cc(C)cc2F)cnc2[nH]ncc12
[Q] Cc1cc(N2CCN(C(=O)c3ccco3)CC2)nc(N2CCCCC2)n1
Exam item: Hey, which is lower on measured RP-LC retention time, P or Q ? Pick one; state its label.
Marked response: Q
(Q: 626 s, P: 916 s)

---

- test-name: gradient 5% acetonitrile 3 min, to 50% in 2 min, to 85% in 15 min, held 3 min, 100 µL/min
- condition-context: column: Zorbax Extend-C18 2.1 x 50 mm; eluents: water / acetonitrile, 0.1% formic acid
outcome-measure: RP-LC retention time (s)

molecule: COc1ccc(OC)c(NC(=O)Nc2c(-c3ccc(F)cc3)nc3ccccn23)c1
unit-symbol: s
RP-LC retention time: 625
--
molecule: CCN(CC)CCNC(=O)C1CCN(c2nccnc2Sc2ccccc2)CC1
unit-symbol: s
RP-LC retention time: 657
--
molecule: Ic1ccccc1CNC1C2CCN(CC2)C1C(c1ccccc1)c1ccccc1 (stereo not given)
unit-symbol: s
RP-LC retention time: 982

[1] CCOc1ccc(CN2CCC3(CC2)CC(O)CCO3)cc1 (stereo not given)
[2] COc1ccccc1-c1noc(Cn2c(=O)n(-c3cccc(F)c3)c(=O)c3sccc32)n1
Exam item: From the recorded data, which exceeds the other in RP-LC retention time: 1 or 2 ? Pick one; state its label.
Marked response: 2

---

- test-name: gradient 5% acetonitrile 3 min, to 50% in 2 min, to 85% in 15 min, held 3 min, 100 µL/min
- condition-context: column: Zorbax Extend-C18 2.1 x 50 mm; eluents: water / acetonitrile, 0.1% formic acid
outcome-measure: RP-LC retention time (s)

# annotated cases, reported RP-LC retention time shown
compound: Cc1nn(-c2ccccc2)cc1C(=O)N1CCC(CC(=O)NC2CC2)CC1
outcome-measure: RP-LC retention time
unit-symbol: s
numeric-readout: 667
//
compound: CCC(=O)N1CCc2cc(CNS(=O)(=O)c3ccc(OC)c(OC)c3)ccc21
outcome-measure: RP-LC retention time
unit-symbol: s
numeric-readout: 747
//
compound: COc1ccc(OC)c(NC(=O)N2C[C@@H](F)C[C@H]2C(=O)N2CCCCC2)c1
outcome-measure: RP-LC retention time
unit-symbol: s
numeric-readout: 720
//
compound: CC(NC(=O)C1CCN(c2cncnc2N2CCCC2)CC1)c1ccccc1 (stereo not given)
outcome-measure: RP-LC retention time
unit-symbol: s
numeric-readout: 660
//
compound: CCn1cc(C(=O)Nc2ccc(F)c(C)c2)c(S(=O)(=O)N2CCSCC2)n1
outcome-measure: RP-LC retention time
unit-symbol: s
numeric-readout: 1040

[P] Cc1oc2ncnc(N3CCCC(C(=O)NCc4cccc(Cl)c4)C3)c2c1C (stereo not given)
[Q] CCCNC(=O)C1CCN(c2ccc(SCC(=O)Nc3ccc(OC)cc3)nn2)CC1
Exam item: From the recorded data, which exceeds the other in RP-LC retention time: P or Q ? Pick one; state its label.
Marked response: P
